B1: HDV Ribozyme (parent)
chain: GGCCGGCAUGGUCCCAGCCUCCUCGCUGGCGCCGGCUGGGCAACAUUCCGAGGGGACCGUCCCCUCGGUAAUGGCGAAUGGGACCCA

variants of: B1; assay: self-cleavage, relative activity (ratio to wild type); higher = more cleavage; co-transcriptional

[
  {
    "VARIANT LABEL": "G5U U37C",
    "self-cleavage": 0.519
  },
  {
    "VARIANT LABEL": "A45G U72G",
    "self-cleavage": 0.68
  },
  {
    "VARIANT LABEL": "C7A U9C",
    "self-cleavage": 0.604
  },
  {
    "VARIANT LABEL": "A78C A87U",
    "self-cleavage": 0.199
  },
  {
    "VARIANT LABEL": "A8C C85G",
    "self-cleavage": 0.798
  },
  {
    "VARIANT LABEL": "C4U C30U",
    "self-cleavage": 0.332
  },
  {
    "VARIANT LABEL": "G1C A42C",
    "self-cleavage": 0.0639
  },
  {
    "VARIANT LABEL": "G6C G25A",
    "self-cleavage": 0.0898
  },
  {
    "VARIANT LABEL": "C44G",
    "self-cleavage": 0.753
  },
  {
    "VARIANT LABEL": "C32A A78C",
    "self-cleavage": 0.0665
  },
  {
    "VARIANT LABEL": "C3A G38C",
    "self-cleavage": 0
  },
  {
    "VARIANT LABEL": "C21G C22U",
    "self-cleavage": 0.0519
  },
  {
    "VARIANT LABEL": "G17U A42U",
    "self-cleavage": 0.089
  },
  {
    "VARIANT LABEL": "C14U A83U",
    "self-cleavage": 0.378
  },
  {
    "VARIANT LABEL": "G5U U23A",
    "self-cleavage": 0.578
  },
  {
    "VARIANT LABEL": "G17U G74C",
    "self-cleavage": 0.0415
  },
  {
    "VARIANT LABEL": "A16U G81C",
    "self-cleavage": 0.342
  },
  {
    "VARIANT LABEL": "C57G C86A",
    "self-cleavage": 0.656
  },
  {
    "VARIANT LABEL": "G39U A45C",
    "self-cleavage": 0.196
  },
  {
    "VARIANT LABEL": "G2A A42C",
    "self-cleavage": 0.0432
  }
]
